- assayed.target: Hepatocyte growth factor receptor (Homo sapiens, UniProt P08581)
- Sequence (P08581 whole entry): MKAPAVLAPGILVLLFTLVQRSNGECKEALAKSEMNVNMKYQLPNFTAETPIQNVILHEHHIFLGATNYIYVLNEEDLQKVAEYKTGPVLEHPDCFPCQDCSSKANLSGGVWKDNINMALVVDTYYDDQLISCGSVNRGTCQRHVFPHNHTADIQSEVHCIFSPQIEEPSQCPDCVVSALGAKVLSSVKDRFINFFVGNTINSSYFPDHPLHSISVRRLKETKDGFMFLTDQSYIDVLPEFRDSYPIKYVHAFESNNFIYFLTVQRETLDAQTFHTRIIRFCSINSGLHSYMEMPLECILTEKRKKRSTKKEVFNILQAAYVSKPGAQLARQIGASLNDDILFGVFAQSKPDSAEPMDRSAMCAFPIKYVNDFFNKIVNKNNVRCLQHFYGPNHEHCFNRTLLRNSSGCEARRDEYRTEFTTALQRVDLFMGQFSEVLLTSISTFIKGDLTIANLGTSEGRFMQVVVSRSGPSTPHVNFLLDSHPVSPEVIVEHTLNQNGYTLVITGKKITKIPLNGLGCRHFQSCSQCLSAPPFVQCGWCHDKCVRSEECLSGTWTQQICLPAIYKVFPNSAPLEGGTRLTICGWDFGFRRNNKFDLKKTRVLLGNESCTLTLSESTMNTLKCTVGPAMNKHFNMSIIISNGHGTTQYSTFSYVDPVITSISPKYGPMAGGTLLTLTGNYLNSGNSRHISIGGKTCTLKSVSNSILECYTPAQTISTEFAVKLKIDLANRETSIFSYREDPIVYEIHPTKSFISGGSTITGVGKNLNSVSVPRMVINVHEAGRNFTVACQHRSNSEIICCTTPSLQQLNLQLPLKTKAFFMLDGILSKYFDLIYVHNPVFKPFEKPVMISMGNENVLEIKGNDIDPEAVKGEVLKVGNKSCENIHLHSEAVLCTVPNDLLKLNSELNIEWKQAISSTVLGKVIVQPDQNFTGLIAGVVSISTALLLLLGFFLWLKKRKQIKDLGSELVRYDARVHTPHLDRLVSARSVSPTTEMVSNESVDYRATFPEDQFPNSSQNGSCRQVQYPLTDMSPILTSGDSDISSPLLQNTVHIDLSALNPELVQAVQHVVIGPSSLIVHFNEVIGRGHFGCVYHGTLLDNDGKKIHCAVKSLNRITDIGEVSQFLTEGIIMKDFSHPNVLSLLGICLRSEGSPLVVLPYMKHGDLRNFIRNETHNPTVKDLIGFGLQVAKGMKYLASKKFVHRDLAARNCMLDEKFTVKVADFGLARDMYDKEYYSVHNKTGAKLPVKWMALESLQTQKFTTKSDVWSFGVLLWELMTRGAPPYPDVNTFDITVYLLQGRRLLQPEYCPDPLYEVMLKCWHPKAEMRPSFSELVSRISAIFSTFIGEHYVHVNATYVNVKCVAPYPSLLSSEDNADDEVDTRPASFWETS
pIC50: −log10 of the molar value.
parameter.measured: pIC50

{"compound": "C=C(CC[C@@H](C)[C@H]1CC[C@H]2[C@H](CCc3cc(O)ccc3C)[C@H](O)CC[C@]12C)C(C)C", "parameter.measured": "pIC50", "result": "< 4.00"}
{"compound": "Cc1ccc(O)cc1CC[C@@H]1C(=O)CC[C@]2(C)[C@@H]([C@H](C)CCCC(C)C)[C@@H](O)C[C@@H]12", "parameter.measured": "pIC50", "result": "< 4.00"}
{"compound": "Cc1ccc(O)cc1CC[C@@H]1[C@H](O)CC[C@]2(C)[C@@H]([C@H](C)CCCC(C)C)[C@@H](O)C[C@@H]12", "parameter.measured": "pIC50", "result": "< 4.00"}
